Sourced from the DeepSol protein solubility set

# experiment: soluble on expression in E. coli; label from the status in PepcDB or PDB records
recorded.endpoint: soluble on expression in E. coli

Solved cases (6 shown):
chain: MSKKIRTEAVDYLFDAILSLKDKEECYTFFEDICTINELLSLSQRFEVAKMLREQKTYLEIAEKTGASTATISRVNRSLNYGNDGYDMVFERMEK
reported.value: not soluble

chain: MKHLPQLEGVSVGLEGEAVSLFWGEIKEEERQEIYECAKALVPWRKGPFWVGDFLIDSEWVSAKKYALLEPHFDLCNKDVADIGCNNGYYMFRMWGQKPKSLTGFDPSPLCRTQFDFINHFIQAPIRFELLGVEHLEGYGKLFDVIFCLGVLYHRSDPIQTLKSLYKGLAKGGELLLDTLMIEGEEEVALTPKDRYAKMSNVYFIPTFKALSHWLHRAGFERVEKLEIAKTGLDEQRKTEWINSQSLEDFLDPCSHDRTIEGYPAPRRIYVKAYKGA
reported.value: not soluble

chain: MKFIRRCMMETRYTVRQAVEMTGVKSYVLRYWEEELELQIHRNELGHRYYTGYDIQLFLNIKELKKRGLQLRAIKNLIPQITASMTGFGESASTLLEGEVIDHAEVKTDRDLKEKISKKDEGKNDKILEFQAILERLITQELKAQNEDEERCRSLDYAIRRQQLARKEAAAAAEKKSGRRRRDK
reported.value: not soluble

chain: NLNMAVSVTPIRDTKWLTLEVCREFQRGTCSRPDTECKFAHPSKSCQVENGRVIACFDSLKGRCSRENCKYLHPPPHLKTQLEINGRNNLIQQKNMAMLAQQMQLANAMMPGAPLQPVPMFSVAPSLATNASAAAFNPYLGPVSPSLVPAEILPTAPMLVTGNPGVPVPAAAAAAAQKLMRTDRLEVCREYQRGNCNRGENDCRFAHPADSTMIDTNDNTVTVCMDYIKGRCSREKCKYFHPPAHLQAKIKAAQYQVNQAAAAQAAATAAAMGIPQAVLPPLPKRPALEKTNGATAVFNTGIFQYQQALANMQLQQHTAFLPPVPMVHGATPATVSAATTSATSVPFAATATANQIPIISAEHLTSHKYVTQM
reported.value: soluble

chain: MRKLKYQRDFFPLLHLNYGSNWRCGMDRIAYFKSLLEKNPDNPMVHYSLGLEYFKVKDYENAIKHLERYLELQEDEGAAYRTLAKCYEELGEFQKAIEVLEEGIRQAMKYNHPSMAQEYQQWIEELKGMAF
reported.value: soluble

chain: MSLYVKMMEMGRMIDNCLYCGSATLLSIIHLANGKNAVTCGKCGLTRTIPVPSAEYSEVAEYFENYLLKEKLFRAFSRKLLDFVLSVVQNGRLLEVGCSVGFFLEEAKRAGFSVNGVELNEKAATLSKGKDFDVRNCMLREAGFPSHEFDVVVMSHVLEHIQDLREFLADIKVLLRPGGKVIVSQPTPDGIVPKMQKKKWYGWVPNEHVWHFTPKTLSLVFAENGFDVVKVERNSMYYSLWPSSLRGILVALVARTAAVLGLGDQFYLAATVSEKDSEGHHHHHH
reported.value: not soluble

// query Could you tell me which soluble on expression in E. coli is on file for MSLALITLRQRNNKVEVRVFDTGIGIDADKQKAIFTDFYRIQDSDEAGVGLGLGVVRRLTEQMHATIDVSSVKRKGSCFILNMRIGSPVTESNVTFNKVKQTLSGLNVLCVDDKNENLDALETLLTRWEVNVVMANTYESALTLLASNKHPSPDVLLIDYQLDKDQDGLSLIKDIKAQVGKHIPSAIVTALQDQELKETCLSQGIQFLNKPLKPAKLRALLQSLAKQKSEGHHHHHH ?
// result not soluble

// query Please give the measured soluble on expression in E. coli for this sequence: MGSDKIHHHHHHMAGNTIGQLFRVTTFGESHGLALGCIVDGVPPGIPLTEADLQHDLDRRRPGTSRYTTQRREPDQVKILSGVFEGVTTGTSIGLLIENTDQRSQDYSAIKDVFRPGHADYTYEQKYGLRDYRGGGRSSARETAMRVAAGAIAKKYLAEKFGIEIRGCLTQMGDIPLDIKDWSQVEQNPFFCPDPDKIDALDELMRALKKEGDSIGAKVTVVASGVPAGLGEPVFDRLDADIAHALMSINAVKGVEIGDGFDVVALRGSQNRDEITKDGFQSNHAGGILGGISSGQQIIAHMALKPTSSITVPGRTINRFGEEVEMITKGRHDPCVGIRAVPIAEAMLAIVLMDHLLRQRAQNADVKTDIPRW
// result not soluble

// query Recorded soluble on expression in E. coli of MGSDKIHHHHHHDEFIQGIGNQNAQESGVWDFSMSISDMKFSQEDGAQTNPMIGMLITQIKDASLSGKIQVDAKKEKAFNLEMKLKAMGMDVPISLVGSLDNEGKEPKLYLATDMMEYIVAVADSMTDGAIDSSQLDTEKLKGKYIDLLAMNEESTKEWQDTIKEYQESEKERKQSAKEYKEFLEGLDKDTFEKKGDTITHTFTKKELQKLIKITTETSEKGKEQDPFEKVKDVSAKVSVNTKENKTNMLINVKPQQDKNVDMGLESLSSKISITQKAKKATISMPKKENILSEQEVEKIFSDSTSMTGLSTEDTTVAINQ , please.
// result not soluble

// query Please give the measured soluble on expression in E. coli for this sequence: MINAVGNPQTLLLLGGTSEIGLAICEEYLKKAPMRVILAALPGDPGRDAAVAQLKAAGANAVDVIDFDAVDTESHPKVIDEAWAKSDVDVAIVAFGLLGDAEELWQNQRKAVQIAEVNYTAAVSVGVLVGEKMKAQGFGQIIAMSSAAGERVRRSNFVYGSTKAGLDGFYLGLGEALREFGPRVLVIRPGQVRTRMSADVKEAPLTVNKEDVAKLAVTSAEKGKDLVWAPGAFRYVMMILRHIPRPIFKKLPI
// result not soluble

// query # input sequence: MLRRIKRFLGLSTHAYFPNNEVAPTADGSLISTMSRKSTKSERKAAKKEKKRSQLADTSAPAIFHVPTAPADIVTEGEGSTVGQGSEIDRRTVITDSLPYREPSDKVYMGSPPSTVPQAPESSSSTRSLVGSDSIKSRLESMTIDGTSSVLQHVDSLTNSVYSAEFCQEVDSQNTCDAKSRELPVDCDIPTATEPLPISTKSNPVSNSSLTYMADVKLILPDKRDEKSEEVAGMKQLNAELDGLLKTSAPPFQVSTARLPPMLRELPPPANDESMLSGNDEFDDSKNNSVARYLNESHEVMMRSPENKHLRSCGY ; wanted: its soluble on expression in E. coli
// result not soluble
